# Tested system: PDE4B (Homo sapiens, UniProt Q07343)
# Sequence (Q07343 whole entry, species assumed): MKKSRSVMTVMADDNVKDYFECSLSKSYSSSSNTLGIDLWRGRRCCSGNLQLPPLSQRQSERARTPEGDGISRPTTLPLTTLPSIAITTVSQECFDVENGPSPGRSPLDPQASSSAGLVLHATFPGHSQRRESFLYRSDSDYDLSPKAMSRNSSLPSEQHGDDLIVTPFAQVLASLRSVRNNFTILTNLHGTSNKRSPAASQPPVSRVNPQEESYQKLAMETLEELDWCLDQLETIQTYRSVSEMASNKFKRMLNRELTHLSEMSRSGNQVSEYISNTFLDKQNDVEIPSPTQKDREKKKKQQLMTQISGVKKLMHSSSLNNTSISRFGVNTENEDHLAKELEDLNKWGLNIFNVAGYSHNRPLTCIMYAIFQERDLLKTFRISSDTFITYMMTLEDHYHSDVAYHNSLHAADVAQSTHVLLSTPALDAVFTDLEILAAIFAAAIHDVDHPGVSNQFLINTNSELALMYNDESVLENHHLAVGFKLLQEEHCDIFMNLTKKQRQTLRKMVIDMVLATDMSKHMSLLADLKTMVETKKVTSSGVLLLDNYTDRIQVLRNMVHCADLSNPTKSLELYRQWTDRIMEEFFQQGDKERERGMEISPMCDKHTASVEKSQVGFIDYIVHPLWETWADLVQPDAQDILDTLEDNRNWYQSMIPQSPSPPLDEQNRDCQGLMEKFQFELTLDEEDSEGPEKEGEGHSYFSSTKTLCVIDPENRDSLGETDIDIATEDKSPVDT
# Assay notes: Scintillation Proximity Assay (SPA) of PDE4B enzyme activity ([H3]-cAMP cleavage)
# Assay type: biochemical
# Setup conditions: test substance 1 μM; one-hour incubation of [H3]-cAMP with PDE4B enzyme at 30° C.
Measurement kind: inhibition at 1 µM (%)

[[record]]
compound = "CC(C)c1noc(C2CCN(c3nc4c(c(NC5(CO)CC5)n3)[S+]([O-])CC4)CC2)n1 (centres unmarked) [Example 113]"
assay_value = 92

[[record]]
compound = "CC(C)[C@H](CO)Nc1nc(N2CCC(C#N)(c3ccccc3)CC2)nc2c1[S+]([O-])CC2 (some centres unmarked) [Example 25]"
assay_value = 90

[[record]]
compound = "COC(=O)c1ccc(C2CCN(c3nc4c(c(NC5CCOCC5)n3)[S+]([O-])CC4)CC2)cc1 (centres unmarked) [Example 119]"
assay_value = 95

[[record]]
compound = "[O-][S+]1CCc2nc(N3CCC(c4ccc5ccccc5c4)CC3)nc(NC3(CO)CC3)c21 (centres unmarked) [Example 111]"
assay_value = 96

[[record]]
compound = "[O-][S+]1CCc2nc(N3CCC(c4noc5ccc(F)cc45)CC3)nc(Nc3cccc(F)c3)c21 (centres unmarked) [Example 137]"
assay_value = 95

